test_details: Cytotoxicity against human Nthy-ori 3-1 cells after 10 days by MTT assay
Format: cell-based
Class membership depends on GI50 at 240 h alone; the intervals are LOW: < 10 µM; MEDIUM: ≥ 10 µM and < 20 µM; HIGH: ≥ 20 µM

molecule	answer_label
CC(C)n1nc(C2=NOC(c3ccccc3)C2)c2c(N)ncnc21 (stereo unspecified)	MEDIUM
CC(C)n1nc(-c2cc(-c3ccccc3)on2)c2c(N)ncnc21	LOW

Query molecule follows.
Entry "Nc1ncnc2c1c(-c1cc(C3CC3)on1)nn2Cc1ccccc1" belongs to which category?
HIGH

----------
tgt: Proto-oncogene tyrosine-protein kinase receptor Ret (Homo sapiens, UniProt P07949)
Sequence (P07949 whole entry): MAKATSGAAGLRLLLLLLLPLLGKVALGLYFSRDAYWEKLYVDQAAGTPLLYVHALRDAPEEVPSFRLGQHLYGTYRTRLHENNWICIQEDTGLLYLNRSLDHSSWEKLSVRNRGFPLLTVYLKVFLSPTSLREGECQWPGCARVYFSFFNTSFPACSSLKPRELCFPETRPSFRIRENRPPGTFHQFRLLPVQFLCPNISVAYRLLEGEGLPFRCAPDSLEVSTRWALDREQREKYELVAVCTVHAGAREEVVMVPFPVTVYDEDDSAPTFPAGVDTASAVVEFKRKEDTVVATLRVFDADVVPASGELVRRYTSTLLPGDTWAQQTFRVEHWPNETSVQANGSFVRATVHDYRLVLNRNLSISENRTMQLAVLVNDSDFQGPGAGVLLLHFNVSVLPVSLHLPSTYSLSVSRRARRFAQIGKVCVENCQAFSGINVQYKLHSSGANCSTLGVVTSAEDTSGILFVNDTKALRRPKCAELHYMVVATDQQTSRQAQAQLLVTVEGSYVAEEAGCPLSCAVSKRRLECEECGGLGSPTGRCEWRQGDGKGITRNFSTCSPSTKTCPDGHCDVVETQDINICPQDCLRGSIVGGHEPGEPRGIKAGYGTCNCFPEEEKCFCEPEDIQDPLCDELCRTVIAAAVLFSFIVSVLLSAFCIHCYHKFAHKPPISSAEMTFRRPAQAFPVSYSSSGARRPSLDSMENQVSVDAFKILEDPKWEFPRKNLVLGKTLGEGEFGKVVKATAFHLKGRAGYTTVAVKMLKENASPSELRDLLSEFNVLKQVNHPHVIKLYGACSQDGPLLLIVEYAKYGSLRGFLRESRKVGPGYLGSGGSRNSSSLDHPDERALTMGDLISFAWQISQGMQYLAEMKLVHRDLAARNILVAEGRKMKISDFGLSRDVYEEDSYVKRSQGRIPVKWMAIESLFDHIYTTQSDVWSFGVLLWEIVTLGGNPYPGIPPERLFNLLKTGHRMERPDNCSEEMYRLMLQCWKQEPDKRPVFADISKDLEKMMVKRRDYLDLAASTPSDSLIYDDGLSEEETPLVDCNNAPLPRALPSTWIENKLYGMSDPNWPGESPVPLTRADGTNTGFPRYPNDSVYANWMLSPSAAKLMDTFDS
assay_context: BaF3
Description: Inhibition of wild type TEL-fused RET (unknown origin) expressed in mouse BA/F3 cells assessed as cell growth inhibition after 48 hrs by MTT assay
Attribute: GI50
Give the value in µM but do not write µM after it.

// known answers, use as guide
compound	tgt	GI50, µM
CC(C)n1nc(-c2cc(-c3ccccn3)on2)c2c(N)ncnc21	Proto-oncogene tyrosine-protein kinase receptor Ret (Homo sapiens, UniProt P07949)	1.11
COc1cc2nccc(Oc3ccc(NC(=O)C4(C(=O)Nc5ccc(F)cc5)CC4)cc3)c2cc1OC [CABOZANTINIB]	Proto-oncogene tyrosine-protein kinase receptor Ret (Homo sapiens, UniProt P07949)	0.05
CC(C)n1nc(-c2ccon2)c2c(N)ncnc21	Proto-oncogene tyrosine-protein kinase receptor Ret (Homo sapiens, UniProt P07949)	3.21
CC(C)n1nc(C2=NOC(c3ccccc3)C2)c2c(N)ncnc21 (stereo not drawn)	Proto-oncogene tyrosine-protein kinase receptor Ret (Homo sapiens, UniProt P07949)	6.24
CC(C)c1cc(-c2nn(C(C)C)c3ncnc(N)c23)no1	Proto-oncogene tyrosine-protein kinase receptor Ret (Homo sapiens, UniProt P07949)	2.4
Nc1ncnc2c1c(-c1cc(C3CC3)on1)nn2C1CCCCC1	Proto-oncogene tyrosine-protein kinase receptor Ret (Homo sapiens, UniProt P07949)	0.52
CC(C)(O)Cn1nc(-c2cc(C3CC3)on2)c2c(N)ncnc21	Proto-oncogene tyrosine-protein kinase receptor Ret (Homo sapiens, UniProt P07949)	1.77
Cn1nc(-c2cc(C3CC3)on2)c2c(N)ncnc21	Proto-oncogene tyrosine-protein kinase receptor Ret (Homo sapiens, UniProt P07949)	2.67
CCc1cc(-c2nn(C(C)C)c3ncnc(N)c23)no1	Proto-oncogene tyrosine-protein kinase receptor Ret (Homo sapiens, UniProt P07949)	1.56
Nc1ncnc2c1c(-c1cc(C3CC3)on1)nn2C1CCOCC1	Proto-oncogene tyrosine-protein kinase receptor Ret (Homo sapiens, UniProt P07949)	0.44

Please give the measured GI50 for this compound: "Nc1ncnc2[nH]nc(-c3cc(C4CC4)on3)c12"
5.34

Please give the measured GI50 for this compound: "CC(C)n1nc(/C=N/OCc2ccccc2)c2c(N)ncnc21"
7.41

Please give the measured GI50 for this compound: "CC(C)n1nc(-c2cc(C3CC3)on2)c2c(N)ncnc21"
0.08

Please give the measured GI50 for this compound: "CC(C)n1nc(C#Cc2ccccc2)c2c(N)ncnc21"
0.61
